A set of molecules tested on UniProtKB Q8A7N2, with measured pIC50:
# pIC50: negative log10 of molar concentration; output just the value

Consider the reported pIC50 for these molecules:
>>> reported("CCC(CC)(NC(=O)Nc1ccc(OC(F)F)cc1F)C(=O)O [Example 16]")
5.38
>>> reported("CC[C@@](C)(NC(=O)Nc1ccc(I)cc1)C(=O)O [Example 31]")
5.10
>>> reported("CCCC(CC)(NC(=O)Nc1ccc(OC(F)(F)F)cc1)C(=O)O (stereo not drawn) [Example 6]")
5.28
>>> reported("CCC(NC(=O)Nc1ccc(OC(F)(F)F)cc1)(C(=O)O)C1CC1 (stereo not drawn) [Example 7]")
6.52

Problem: Report pIC50 under test system UniProtKB Q8A7N2 for CCC(CC)(NC(=O)Nc1ccc(C2(C#N)CC2)cc1)C(=O)O [Example 39] .
Sequence (Q8A7N2 entry or part of it, change not shown): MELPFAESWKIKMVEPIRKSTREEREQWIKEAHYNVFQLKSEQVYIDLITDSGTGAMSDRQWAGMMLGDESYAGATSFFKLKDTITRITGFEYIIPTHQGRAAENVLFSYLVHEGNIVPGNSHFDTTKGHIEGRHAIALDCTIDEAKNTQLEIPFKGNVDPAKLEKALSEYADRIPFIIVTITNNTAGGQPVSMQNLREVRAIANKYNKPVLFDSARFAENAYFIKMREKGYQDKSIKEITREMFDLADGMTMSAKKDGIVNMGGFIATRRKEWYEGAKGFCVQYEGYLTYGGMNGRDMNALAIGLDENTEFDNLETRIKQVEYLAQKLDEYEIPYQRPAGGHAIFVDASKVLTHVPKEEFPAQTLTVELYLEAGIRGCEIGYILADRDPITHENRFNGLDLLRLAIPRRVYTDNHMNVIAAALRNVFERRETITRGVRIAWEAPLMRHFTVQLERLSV
Result: 5.28

Problem: Report pIC50 under test system UniProtKB Q8A7N2 for CC[C@@](C)(NC(=O)Nc1ccc(OC(F)(F)F)cc1)C(=O)O [Example 4] .
Result: 5.06

Problem: Report pIC50 under test system UniProtKB Q8A7N2 for CCC(NC(=O)Nc1ccccc1)(C(=O)O)C1CC1 (stereo not drawn) [Example 22] .
Result: 5.68

Problem: Report pIC50 under test system UniProtKB Q8A7N2 for CC[C@@](C)(NC(=O)Nc1ccc(OC(F)F)c(Cl)c1)C(=O)O [Example 18] .
Result: 5.28

Problem: Report pIC50 under test system UniProtKB Q8A7N2 for CCC(NC(=O)Nc1cccc(C#N)c1)(C(=O)O)C1CC1 (stereo not drawn) [Example 32] .
Result: 6.00
